- Tested on: Plasmodium falciparum
- method_description: Calibr Malaria Delayed Death Assay SOP
- Type: functional, organism-based
- Set-up: scale not given: in the data most compounds retested in dose-response had high values
- condition_parameters: concentration 4.99e-06 (unit not given; other assays of the set use mol/L)
Among all 38,000 compounds or so, about 1,200 (3.2%) showed an effect of 50% or more. The median lay at about -58%. Only a selection was taken, and strong results are over-represented in it overall.
measurement_label: Percent Effect (%)
Report only the number, with the unit % understood.

q: I'd like to know its Percent Effect. The compound in question is CCc1c(C)sc2ncnc(N3CC[C@@H](N4CCOCC4)[C@H](O)C3)c12
a: -5.608

q: Now the compound CCc1c(C)sc2ncnc(N3CC[C@@H](N4CCC(O)CC4)[C@H](O)C3)c12
a: 74.53

q: Same question for O=C(NCCNc1cncc(Br)c1)c1ccc(O)cc1 please.
a: 50.22

q: Now consider CN1CCC(N(C)CCC(=O)N2CCC(CCc3ccccc3)CC2)C1 (stereo unspecified) and answer again.
a: 17.74

q: Would you mind doing COc1ccc(C2OC(COc3ccc(C)cc3)=NN2C(C)=O)cc1 (stereo unspecified) as well?
a: -155.6

q: Quick one: CN1CC[C@H](N(Cc2ccccc2)Cc2ccccc2)C[C@H](O)C1
a: 71.85

q: Then O=C(Cc1ccccn1)N1CCc2ncnc(NC3CCC3)c2CC1.O=C(O)C(F)(F)F ?
a: -99.33

q: Note, next up: O=C(NCCNc1ccc(Br)cn1)c1ccc(O)cc1
a: -25.48

q: Proceed to CN(Cc1cccc(F)c1)C(=O)CN1CCOC(Cn2cncn2)C1 (stereo unspecified)
a: -118.2

q: Also need Cc1cc(C2CCCN2C(=O)NCc2c(C)cc(C)[nH]c2=O)on1 (stereo unspecified) , thanks.
a: -57.59

q: Then this compound: CN(C)c1cc(CNCc2ccc(N3CCOCC3)cc2)ccn1
a: -42.2

# credit: ChEMBL document CHEMBL3988442
